B1: MYBL2 (parent)
chain: FSPSQFLNFWNKQDTLELESPSLT

Variants of: B1
Assay: protein stability index of a GFP-peptide fusion (GPS, HEK-293T) (PSI 1-6); higher = more stable;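 further: lentivirally expressed fusions sorted by FACS into six bins by GFP to DsRed ratio, PSI derived from sequencing read proportions per bin multiplied by bin number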
Conditions: c terminus: a fixed tail appended
reported-property: protein stability index

>>> result("FSPSQFLNFWNKQDTLELESPSMT")
2.41
>>> result("FSPSQRLNFWNKQDTLELESPSLT")
3.66
>>> result("FSPHQFLNFWNKQDTLELESPSLT")
2
>>> result("FSPSQFLNFWNKQDTLELESPSLN")
2.1
>>> result("FSPSQFLNFWNKQLTLELESPSLT")
2.6

List protein stability index for every entry below, keeping the order given.
1. FSPSQFLNFWAKQDTLELESPSLT
2. FSPSQFLNNWNKQDTLELESPSLT
3. FSPSQQLNFWNKQDTLELESPSLT
4. FSPSQFLNFWNKQDTLELESPSST

Response given:
1.4
2.29
3.08
2.13

List protein stability index for every entry below, keeping the order given.
1. FSPSQFLNFWNKQDTGELESPSLT
2. FSPSQFLNFWNKQDTLELESPYLT
3. FKPSQFLNFWNKQDTLELESPSLT
4. FSPSQFLNFWNKQDTLELESSSLT

Response given:
1. 4.14
2. 2.61
3. 1.99
4. 2.09

List protein stability index for every entry below, keeping the order given.
1. FSPSQFLNFWNKSDTLELESPSLT
2. FSPSQFLNFWNKQDTLELESPWLT
3. FSPSQFLNFWNKQDTLELESKSLT

Response given:
1. 3.98
2. 3
3. 3.01

List protein stability index for every entry below, keeping the order given.
1. FSPSQFLNFWNKQDTLELEFPSLT
2. FSPSQFLNFWNKQDTLELESPSLP
3. FSPSQFQNFWNKQDTLELESPSLT
4. FSPSQFLNFWNKQDTLELDSPSLT
5. FSPSQFLNFWNKQDTMELESPSLT

Response given:
1. 2.57
2. 3.08
3. 2.92
4. 3.09
5. 2.56

List protein stability index for every entry below, keeping the order given.
1. FSPSQFLNFWNKQDTDELESPSLT
2. FSPSQFLNFWNKQGTLELESPSLT
3. ISPSQFLNFWNKQDTLELESPSLT
4. FSPSQFLAFWNKQDTLELESPSLT

Response given:
1. 3.85
2. 2.94
3. 3
4. 3.07

List protein stability index for every entry below, keeping the order given.
1. FSPSQFLIFWNKQDTLELESPSLT
2. FSPSQFLNFWNKQDTLEKESPSLT
3. FSPSQFLNFWNKQDTLEEESPSLT
4. FSPTQFLNFWNKQDTLELESPSLT
5. FSPSQFLNFWNKQDTLRLESPSLT

Response given:
[4.12, 2.98, 3.1, 3.36, 2.45]

List protein stability index for every entry below, keeping the order given.
1. FSPSQFLNFWNKQDTLELESDSLT
2. FSPSQFINFWNKQDTLELESPSLT
3. FSPSQVLNFWNKQDTLELESPSLT
4. FSPSQFLNFWNKQDTLELESPPLT
5. FSPSQFLNMWNKQDTLELESPSLT
6. FSYSQFLNFWNKQDTLELESPSLT
7. FSRSQFLNFWNKQDTLELESPSLT

Response given:
1: 2.2; 2: 3.39; 3: 2.39; 4: 1.89; 5: 1.63; 6: 3.74; 7: 2.39

List protein stability index for every entry below, keeping the order given.
1. FSPSQFLNFLNKQDTLELESPSLT
2. FSPDQFLNFWNKQDTLELESPSLT
3. FSPSQFLNFWNKHDTLELESPSLT
4. FSPSQFLNFWNKQDTLELEVPSLT

Response given:
1: 2.06; 2: 1.79; 3: 3.41; 4: 2.31
